# ASSAY_SUMMARY: tissue distribution pharmacokinetics after single i.p. administration
# Assay type: in vivo, rat
# CONDITION_CONTEXT: male, Wistar, rat, ip; lungs, 1.0 mg/kg i.p.
PROPERTY_MEASURED: MRT (h)
Numeric only. Scale: h

q: Supply recorded MRT for CN1CCN(c2nc(N)nc(C(C)(C)Sc3ccc4ccccc4c3)n2)CC1 here.
a: 1.21

====

# ASSAY_SUMMARY: tissue distribution pharmacokinetics after single i.p. administration
# Assay type: in vivo, rat
# CONDITION_CONTEXT: male, Wistar, rat, brain, ip, 0.3 mg/kg, brain, 0.3 mg/kg i.p.; read-out: Tmax (converted)
PROPERTY_MEASURED: Tmax (min)
Give a bare numeral; the unit min is implied.

q: Item CN1CCN(c2nc(N)nc(C(C)(C)Sc3ccc4ccccc4c3)n2)CC1 : provide Tmax
a: 12
